experiment: Toxicity against brine shrimp; type: organism-based; conditions: artemia, in vivo
Reported values of LC50 for individual entries
Reply with just the number (in µg/mL).

molecule	assay_readout	observed_value
CCCCCCCCCCCC(=O)OCC(O)CO (configuration not stated) [GLYCEROL MONOLAURATE]	LC50	79.2

Quick check: LC50 of CCCCCCCCCCCCCC(=O)OCC(O)CO (configuration not stated) ? 53.3

Data credit: ChEMBL document CHEMBL1145695
